- Tested on: Haemophilus influenzae
- method.description: Antibacterial activity against Haemophilus influenzae after 18 to 20 hrs by agar dilution method
- Assay type: functional
reported.property: log10 of MIC (log10 of the value in µg/mL)
Field: value | Transform: log10 | Quantity: MIC | Unit: µg/mL

Worked examples follow.
| molecule | log10 of MIC |
| --- | --- |
| CC(=O)NC[C@H]1CN(c2ccc(N3CC(C)NS3(=O)=O)c(F)c2)C(=O)O1 (stereo partly specified) | 0.80 |
| CC(=O)NC[C@H]1CN(c2ccc(N3CCOCC3)c(F)c2)C(=O)O1 | 0.19 |
| CC(=O)NC[C@H]1CN(c2ccc(N3CCCNS3(=O)=O)c(F)c2)C(=O)O1 | 0.19 |
| CC(=O)NC[C@H]1CN(c2ccc(N3CCNS3(=O)=O)c(F)c2)C(=O)O1 | -0.70 |
| CC(=O)NC[C@H]1CN(c2ccc(N3CCOS3(=O)=O)c(F)c2)C(=O)O1 | 0.49 |

Could I get log10 of MIC for every one of these entries?
1. CC(=O)NC[C@H]1CN(c2ccc(N3CCN(Cc4ccccc4)S3(=O)=O)c(F)c2)C(=O)O1
2. CC(=O)NC[C@H]1CN(c2ccc(N3CCN(C(=O)OC(C)(C)C)S3(=O)=O)c(F)c2)C(=O)O1
3. CC(=O)NC[C@H]1CN(c2ccc(N3CCCN(C)S3(=O)=O)c(F)c2)C(=O)O1

1: 0.49; 2: 0.80; 3: 0.19

Could I get log10 of MIC for every one of these entries?
1. CC(=O)NC[C@H]1CN(c2ccc(N3CCN(C)S3(=O)=O)c(F)c2)C(=O)O1
2. CC(=O)NC[C@H]1CN(c2ccc(N3CC(C)(C)NS3(=O)=O)c(F)c2)C(=O)O1
3. CCN1CCN(c2ccc(N3C[C@H](CNC(C)=O)OC3=O)cc2F)S1(=O)=O

0.49
1.40
0.49

---

- Tested on: Staphylococcus aureus
- method.description: Antibacterial activity against Staphylococcus aureus C463 after 18 to 20 hrs by agar dilution method
- Type: functional
reported.property: MIC (µg/mL)
Give bare numbers, in µg/mL.

Could I get MIC for every one of these entries?
1. CC(=O)NC[C@H]1CN(c2ccc(N3CC(C)NS3(=O)=O)c(F)c2)C(=O)O1 (stereo partly specified)
2. CC(=O)NC[C@H]1CN(c2ccc(N3CCNS3(=O)=O)c(F)c2)C(=O)O1
3. CC(=O)NC[C@H]1CN(c2ccc(N3CCCN(C)S3(=O)=O)c(F)c2)C(=O)O1
4. CC(=O)NC[C@H]1CN(c2ccc(N3CCCNS3(=O)=O)c(F)c2)C(=O)O1

[12.5, 0.39, 1.56, 3.12]

---

- Tested on: Enterococcus
- method.description: Antibacterial activity against vancomycin-resistant Enterococcus 2 after 18 to 20 hrs by agar dilution method
- Type: functional
What MIC was measured for each of the following?
Answers are plain numbers, in µg/mL.

| molecular.string | reading.unit | MIC |
| --- | --- | --- |
| CC(=O)NC[C@H]1CN(c2ccc(N3CCCN(C)S3(=O)=O)c(F)c2)C(=O)O1 | µg/mL | 1.56 |
| CC(=O)NC[C@H]1CN(c2ccc(N3CCN(C(=O)OC(C)(C)C)S3(=O)=O)c(F)c2)C(=O)O1 | µg/mL | 25 |

Could I get MIC for every one of these entries?
1. CC(=O)NC[C@H]1CN(c2ccc(N3CCOS3(=O)=O)c(F)c2)C(=O)O1
2. CC(=O)NC[C@H]1CN(c2ccc(N3CC(C)(C)NS3(=O)=O)c(F)c2)C(=O)O1

1.56
12.5

For the molecule CC(=O)NC[C@H]1CN(c2ccc(N3CCN(C)S3(=O)=O)c(F)c2)C(=O)O1 , what MIC is on record?
6.25
